# target under test: human DGKα (Homo sapiens (Human), UniProt P23743)
# Sequence (P23743 whole entry, looked up): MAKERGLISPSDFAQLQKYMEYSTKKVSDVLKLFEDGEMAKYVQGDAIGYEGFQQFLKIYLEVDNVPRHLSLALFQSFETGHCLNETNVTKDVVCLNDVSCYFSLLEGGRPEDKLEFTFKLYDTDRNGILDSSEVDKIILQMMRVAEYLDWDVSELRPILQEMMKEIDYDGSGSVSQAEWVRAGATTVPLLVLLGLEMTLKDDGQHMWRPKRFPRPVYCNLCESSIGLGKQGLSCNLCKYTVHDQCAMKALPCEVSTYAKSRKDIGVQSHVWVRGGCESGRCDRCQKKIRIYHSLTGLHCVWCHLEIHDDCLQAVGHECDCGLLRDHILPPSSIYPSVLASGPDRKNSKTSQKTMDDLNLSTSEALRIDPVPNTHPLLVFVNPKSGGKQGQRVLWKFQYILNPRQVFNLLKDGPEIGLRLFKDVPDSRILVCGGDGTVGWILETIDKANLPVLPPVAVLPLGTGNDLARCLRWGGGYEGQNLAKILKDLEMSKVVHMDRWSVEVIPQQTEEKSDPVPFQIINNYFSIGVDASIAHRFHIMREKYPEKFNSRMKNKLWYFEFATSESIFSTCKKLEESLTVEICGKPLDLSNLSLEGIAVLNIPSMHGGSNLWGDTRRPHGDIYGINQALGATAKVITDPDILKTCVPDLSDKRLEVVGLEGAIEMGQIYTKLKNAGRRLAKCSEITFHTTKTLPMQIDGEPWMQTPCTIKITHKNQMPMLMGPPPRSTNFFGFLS
# test description: DGKα ADPGLO assay (detergent/lipid micelle substrate)
# Assay type: biochemical
# condition summary: truncated DGK alpha; read-out: DGK alpha ADPGLO (Truncated) IC50
// boundary case: IC50 equal to 0.1 µM maps to Not satisfied; strictly smaller maps to Satisfied

compound | target under test | category label
CC[C@H]1CN(C(C)c2ccc3oc(=O)n(C)c3c2)[C@H](CC)CN1c1nc(=O)n(C)c2ccc(C#N)nc12 (stereo partly shown) [Example 203] | human DGKα (Homo sapiens (Human), UniProt P23743) | Not satisfied
CC[C@H]1CN(C(C)c2ccc(C3CC3)nc2)[C@H](CC)CN1c1nc(=O)n(C)c2ccc(C#N)nc12 (stereo partly shown) [Example 193] | human DGKα (Homo sapiens (Human), UniProt P23743) | Not satisfied
CC[C@H]1CN(C(c2ccc(F)cc2)c2cccc(C(F)F)n2)[C@H](CC)CN1c1nc(=O)n(C)c2ccc(C#N)nc12 (stereo partly shown) [Example 257] | human DGKα (Homo sapiens (Human), UniProt P23743) | Not satisfied

Request: Strictly below 0.1 µM: is that where IC50 of CC[C@H]1CN(C(C)c2ccc(C3CC3)nc2)[C@H](CC)CN1c1nc(=O)n(C)c2ccc(C#N)nc12 (stereo partly shown) [Example 192] sits?
Result: Satisfied

Request: Please check: IC50 for CC[C@@H]1CN(c2nc(=O)n(C)c3ccc(C#N)nc23)[C@@H](C)CN1C(c1ccc(F)cc1)c1csc(C(F)(F)F)n1 (stereo partly shown) [Example 297] , strictly under 0.1 µM or not?
Result: Not satisfied

Request: Regarding CC[C@H]1CN(C(C)c2ccc(CN3CCN(C)C(=O)C3)cc2)[C@H](CC)CN1c1nc(=O)n(C)c2ccc(C#N)nc12 (stereo partly shown) [Example 287] , kindly confirm whether its IC50 is beneath 0.1 µM.
Result: Not satisfied

Request: Dear colleague, could you confirm whether IC50 of CC[C@H]1CN(C(C)c2ccc(CN3CCC(F)(F)CC3)cc2)[C@H](CC)CN1c1nc(=O)n(C)c2ccc(C#N)nc12 (stereo partly shown) [Example 278] falls below 0.1 µM? Thanks.
Result: Not satisfied

Request: Consider [2H]C([2H])([2H])Oc1ccc(C(C)N2C[C@H](CC)N(c3nc(=O)n(C)c4ccc(C#N)nc34)C[C@H]2CC)cc1 (single isomer, unassigned) . Does its IC50 lie strictly below 0.1 µM?
Result: Not satisfied

Request: I'd appreciate it if you could check whether CC[C@H]1CN(C(c2ccc(OC(C)C)cc2)C(C)C)[C@H](CC)CN1c1nc(=O)n(C)c2ccc(C#N)nc12 (stereo partly shown) has IC50 smaller than 0.1 µM.
Result: Not satisfied

Request: Threshold test, IC50 < 0.1 µM: CCC(c1ccc(C#N)cc1)N1C[C@H](CC)N(c2nc(=O)n(C)c3ccc(C#N)nc23)C[C@H]1CC (stereo partly shown) [Example 220]
Result: Not satisfied

Request: Problem: For the compound CCC(c1ccc(C2CC2)cc1F)N1C[C@H](C)N(c2nc(=O)n(C)c3ccc(C#N)nc23)C[C@H]1CC (stereo partly shown) [Example 302] , is IC50 under 0.1 µM?
Result: Satisfied

Request: Is the reported IC50 for CCC(c1ccc(C)cc1)N1C[C@H](CC)N(c2nc(=O)n(C)c3ccc(C#N)nc23)C[C@H]1CC (stereo partly shown) [Example 236] strictly below 0.1 µM?
Result: Satisfied
